Where do these numbers come from? They come from ChEMBL document CHEMBL6134854.

Here, each record is paired with measured IC50 data.
- assayTarget: Polyamine deacetylase HDAC10 (Homo sapiens, UniProt Q969S8)
- Sequence (Q969S8 whole entry): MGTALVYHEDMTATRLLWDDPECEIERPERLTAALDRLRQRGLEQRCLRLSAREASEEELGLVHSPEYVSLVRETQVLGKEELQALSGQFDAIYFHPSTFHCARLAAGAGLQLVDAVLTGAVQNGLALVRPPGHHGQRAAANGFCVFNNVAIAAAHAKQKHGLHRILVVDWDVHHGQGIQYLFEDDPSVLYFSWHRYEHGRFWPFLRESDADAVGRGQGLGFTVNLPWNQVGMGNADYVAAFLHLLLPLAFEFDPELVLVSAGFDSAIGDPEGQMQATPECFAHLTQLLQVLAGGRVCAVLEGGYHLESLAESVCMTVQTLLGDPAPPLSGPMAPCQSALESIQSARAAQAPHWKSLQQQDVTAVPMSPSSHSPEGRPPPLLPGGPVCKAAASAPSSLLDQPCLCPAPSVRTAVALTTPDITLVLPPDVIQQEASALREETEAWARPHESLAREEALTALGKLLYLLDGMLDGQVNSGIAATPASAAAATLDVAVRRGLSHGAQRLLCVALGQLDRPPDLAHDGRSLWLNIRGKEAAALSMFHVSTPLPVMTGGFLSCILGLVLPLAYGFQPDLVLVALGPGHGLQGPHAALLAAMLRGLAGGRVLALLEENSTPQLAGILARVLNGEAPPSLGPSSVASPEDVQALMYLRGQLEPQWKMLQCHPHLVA
- methodSummary: Inhibition of recombinant HDAC10 (unknown origin) using Ac-Gly-Ala-Lys(AMC) as substrate preincubated for 1 hrs followed by substrate addition and measured after 2 hrs by fluorescence based microplate reader analysis

Examples with answers:
Field request: IC50 | item: CCNNC(=O)c1cc(F)c(CN2c3ccccc3C=Cc3ccncc32)cc1F > 10 µM

Field request: IC50 | item: CCNNC(=O)c1ccc(CN2c3ccccc3C=Cc3ccncc32)c(F)c1 > 10 µM

Then this compound:
Field request: IC50 | item: CCNNC(=O)c1ccc(CN2c3ccccc3C=Cc3ccncc32)cc1 > 10 µM

* * *

- assayTarget: Histone deacetylase 8 (Homo sapiens, UniProt Q9BY41)
- Sequence (Q9BY41 whole entry): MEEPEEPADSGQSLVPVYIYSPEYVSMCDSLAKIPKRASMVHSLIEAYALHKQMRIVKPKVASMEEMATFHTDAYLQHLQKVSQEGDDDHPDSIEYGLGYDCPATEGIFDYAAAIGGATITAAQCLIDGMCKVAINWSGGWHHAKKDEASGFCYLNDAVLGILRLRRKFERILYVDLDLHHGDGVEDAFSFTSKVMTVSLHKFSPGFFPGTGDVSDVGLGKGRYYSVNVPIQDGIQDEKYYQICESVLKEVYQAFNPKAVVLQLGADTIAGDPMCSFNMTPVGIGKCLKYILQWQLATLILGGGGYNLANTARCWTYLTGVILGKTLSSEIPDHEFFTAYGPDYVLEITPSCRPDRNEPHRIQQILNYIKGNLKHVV
- methodSummary: Inhibition of recombinant HDAC8 (unknown origin) using Boc-Lys (trifluoroacetyl)AMC as substrate preincubated for 1 hrs followed by substrate addition and measured after 2 hrs by fluorescence based microplate reader analysis
pIC50: −log10 of the molar value.
Here, each record is paired with measured pIC50 data.

Field request: pIC50 | item: CCNNC(=O)c1cc(F)c(CN2c3ccccc3C=Cc3ccncc32)cc1F < 5.00

Then this compound:
Field request: pIC50 | item: CCNNC(=O)c1ccc(CN2c3ccccc3C=Cc3ccncc32)c(F)c1 < 5.00

* * *

- assayTarget: Histone deacetylase 7 (Homo sapiens, UniProt Q8WUI4)
- Sequence (Q8WUI4 whole entry): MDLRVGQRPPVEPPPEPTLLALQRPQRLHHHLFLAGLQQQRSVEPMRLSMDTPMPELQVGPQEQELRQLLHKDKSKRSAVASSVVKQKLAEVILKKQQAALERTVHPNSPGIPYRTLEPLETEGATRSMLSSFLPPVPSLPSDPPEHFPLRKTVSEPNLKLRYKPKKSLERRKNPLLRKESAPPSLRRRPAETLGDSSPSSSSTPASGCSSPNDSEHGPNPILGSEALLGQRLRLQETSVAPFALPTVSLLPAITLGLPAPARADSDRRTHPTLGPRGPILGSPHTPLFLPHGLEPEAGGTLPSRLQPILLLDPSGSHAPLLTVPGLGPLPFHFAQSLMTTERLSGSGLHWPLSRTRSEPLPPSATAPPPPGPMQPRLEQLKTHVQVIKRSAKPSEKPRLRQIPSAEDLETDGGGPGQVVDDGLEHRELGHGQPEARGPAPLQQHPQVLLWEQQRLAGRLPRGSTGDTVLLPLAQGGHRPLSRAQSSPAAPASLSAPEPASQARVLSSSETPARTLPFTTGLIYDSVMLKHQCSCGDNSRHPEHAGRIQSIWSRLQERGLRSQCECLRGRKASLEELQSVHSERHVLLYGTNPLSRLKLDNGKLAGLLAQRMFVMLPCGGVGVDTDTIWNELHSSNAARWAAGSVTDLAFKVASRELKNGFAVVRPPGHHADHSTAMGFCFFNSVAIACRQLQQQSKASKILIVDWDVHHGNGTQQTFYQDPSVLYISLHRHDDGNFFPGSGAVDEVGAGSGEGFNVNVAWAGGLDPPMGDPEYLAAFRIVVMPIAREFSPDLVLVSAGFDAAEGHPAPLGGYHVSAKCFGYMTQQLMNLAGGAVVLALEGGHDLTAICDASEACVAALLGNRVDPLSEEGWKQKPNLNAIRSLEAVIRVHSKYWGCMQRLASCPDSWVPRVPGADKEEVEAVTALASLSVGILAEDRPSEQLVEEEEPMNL
- methodSummary: Inhibition of recombinant HDAC7 (unknown origin) using Boc-Lys (trifluoroacetyl)AMC as substrate preincubated for 1 hrs followed by substrate addition and measured after 2 hrs by fluorescence based microplate reader analysis
Here, each record is paired with measured IC50 data.

Field request: IC50 | item: CCNNC(=O)c1cc(F)c(CN2c3ccccc3C=Cc3ccncc32)cc1F > 10 µM

Then this compound:
Field request: IC50 | item: CCNNC(=O)c1ccc(CN2c3ccccc3C=Cc3ccncc32)c(F)c1 > 10 µM
